- System: UACC-257 melanoma
- PROTOCOL: NCI-60 one-dose screen, 48 h (100 = growth as untreated, 0 = no growth, -100 = all killed)
- ASSAY_SETUP: 10 µM unless noted
- Method: Cells are grown in 96 well plates and exposed to the test compound for 48 hours. Compounds are tested at a single concentration, which is 10^-5 M for most compounds. The reported endpoint is percent growth (GI% or GIPRCNT), where numbers from 0 - 100% represent growth inhibition, and numbers from -100% - 0 represent cell death. For example, a value of 40 represents 60% growth inhibition. A value of 0 means no net growth occurred over the course of the experiment. […]
Compounds without any hit were thinned out: in the full panel of roughly 83,000, 20% have a hit.
Friendly reminder: growth below 80% is label 1, at or above is label 0.

Hi there! Is growth for O=S(=O)(Oc1ccc(-c2cn3ccoc3n2)cc1)C1CCCCC1 below 80%, do you know?
label 0

Hi there! Is growth for COc1ccc2c(c1)C=CC1(O2)Oc2ccc(OC)cc2C=C1C (stereo not given) below 80%, do you know?
label 1

Hi there! Is growth for CN1CCN(Cc2ccc(NC(=O)c3cncc(C#Cc4cnc(N)nc4)c3)cc2C(F)(F)F)CC1 below 80%, do you know?
label 1

Hi there! Is growth for CSc1ccc(/C(=N/N=C(N)N)c2ccc(Cl)cc2)cc1 below 80%, do you know?
label 1

Hi there! Is growth for Cc1ccc(OCc2occc2C(=O)N2CCOCC2)cc1 below 80%, do you know?
label 0

Hi there! Is growth for CC(=O)OC[C@]12CC[C@@H](C(=O)/C=C/c3cccnc3)[C@@H]1[C@H]1CC[C@@H]3[C@@]4(C)CC[C@H](OC(C)=O)C(C)(C)[C@@H]4CC[C@@]3(C)[C@]1(C)CC2 below 80%, do you know?
label 1

Hi there! Is growth for COc1ccc2[nH]cc(-c3nn4cc(-c5ccncc5)nc4s3)c2c1 below 80%, do you know?
label 0

Hi there! Is growth for O=C1[C@@H]2Cc3c([nH]c4ccccc34)[C@@H](c3ccc(Cl)cc3)N2C(=O)CN1C1CCN(Cc2c(F)cccc2F)CC1 below 80%, do you know?
label 1

Hi there! Is growth for O=C(CSc1nnc(-c2ccc(Cl)cc2)n1-c1ccccc1)Nc1cccc(F)c1 below 80%, do you know?
label 0

Hi there! Is growth for COc1cc(/C=N\NC(=O)c2ccc3nc(-c4ccc(Br)cc4)[nH]c3c2)cc(OC)c1OC below 80%, do you know?
label 1

Hi there! Is growth for O=c1c2ccccc2cc2n1CCN=C2c1ccccc1 below 80%, do you know?
label 0

Hi there! Is growth for CSc1ccc(/C(=N/N=C(N)N)c2ccc(F)cc2)cc1 below 80%, do you know?
label 1

Hi there! Is growth for Cc1cc(C)cc(NC2=C(Cl)C(=O)c3nc(C)ccc3C2=O)c1 below 80%, do you know?
label 1

Hi there! Is growth for CCNC(=O)Oc1ccc(/C(=C(/C)c2ccc(OC)cc2)c2ccc(OCCN3CCCCCC3)cc2)cc1 below 80%, do you know?
label 1

Hi there! Is growth for CC(=O)Nc1ccccc1-c1nc2ccccc2s1 below 80%, do you know?
label 0

Hi there! Is growth for COc1cc(C(C)=C(c2ccc(OCCN(C)C)cc2)c2ccc(OCCN(C)C)cc2)ccc1F below 80%, do you know?
label 0

Hi there! Is growth for CS(=O)(=O)c1ccc(/C(=N/N=C(N)N)c2ccc(Cl)cc2)cc1 below 80%, do you know?
label 0
